Test system: C.trachomatis D323
PROTOCOL_DETAILS: Antichlamydial activity in infected cell culture (McCoy and L929)
Assay type: cell-based, Chlamydia trachomatis
MEASUREMENT_CONTEXT: 100 mg/l; 48 hours
QUANTITY_MEASURED: percentage of cell protection from infection (%)
// return numeric value only (unit: %, not printed)

For orientation, consider the following solved cases.
GIVEN_SMILES	ENDPOINT_RESULT
CCCCOC(=O)Nc1ccc(S(=O)(=O)Nc2c(Cl)cccc2Cl)cc1	50
CCCCCOC(=O)Nc1ccc(S(=O)(=O)Nc2c(C)n(C)n(-c3ccccc3)c2=O)cc1	55
CCCCCCOC(=O)Nc1ccc(S(=O)(=O)Nc2ccccc2C)cc1	55

Consider the record given below.
Would you kindly share the measured percentage of cell protection from infection for CCCCOC(=O)Nc1ccc(S(=O)(=O)Nc2cccc(Br)c2)cc1 ?
45

====

Each entry below lists one item and its recorded Content of IFN in induction mixture after 24-hour incubation value.
Test system: primary culture of human lymphocytes
PROTOCOL_DETAILS: Interferon-inducing activity in primary culture of human lymphocytes (IFN-α immunoenzyme test)
Type: cell-based
MEASUREMENT_CONTEXT: 10 mg/l

MOLECULE	ENDPOINT_RESULT
CCCCCOC(=O)Nc1ccc(S(=O)(=O)Nc2c(C)n(C)n(-c3ccccc3)c2=O)cc1 [XLI]	18.7 ± 0.2 IU/3x10^4 lymph./ml
CCCCCCCOC(=O)Nc1ccc(S(=O)(=O)Nc2ccccc2Cl)cc1 [XXVII]	1,5 ± 0,3 IU/3x10^4 lymph./ml
CCCCOC(=O)Nc1ccc(S(=O)(=O)Nc2ccccc2Cl)cc1 [IX]	2 ± 0,1 IU/3x10^4 lymph./ml
CCCCOC(=O)Nc1ccc(S(=O)(=O)Nc2cc(C)ccc2C)cc1 [XIV]	1,8 ± 0,2 IU/3x10^4 lymph./ml
CCCCCCOC(=O)Nc1ccc(S(=O)(=O)Nc2ccc(Br)cc2)cc1 [V]	1,4 ± 0,1 IU/3x10^4 lymph./ml

Consider the record given below.
Would you kindly share the measured Content of IFN in induction mixture after 24-hour incubation for CCCCOC(=O)Nc1ccc(S(=O)(=O)Nc2c(Cl)cccc2Cl)cc1 [X] ?
26 ± 1 IU/3x10^4 lymph./ml

====

Test system: primary culture of human lymphocytes
PROTOCOL_DETAILS: Interferon-inducing activity in primary culture of human lymphocytes (IFN-α immunoenzyme test)
Assay type: cell-based
MEASUREMENT_CONTEXT: 10 mg/l
Each entry below lists one item and its recorded Content of IFN in induction mixture after 24-hour incubation value.

MOLECULE	ENDPOINT_RESULT
CCOC(=O)Nc1ccc(S(=O)(=O)Nn2cnnc2)cc1	2 ± 0,2 IU/3x10^4 lymph./ml
CCCCOC(=O)Nc1ccc(S(=O)(=O)Nc2ccccc2)cc1 [XIII, Carbobutoxysulfanylic acid phenylamide]	1,4 ± 0,1 IU/3x10^4 lymph./ml
CCCCOC(=O)Nc1ccc(S(=O)(=O)Nc2cccc(Br)c2)cc1	2 ± 0,5 IU/3x10^4 lymph./ml
CCCCOC(=O)Nc1ccc(S(=O)(=O)Nc2ccc(Br)cc2)cc1	2,6 ± 0,3 IU/3x10^4 lymph./ml

Consider the record given below.
Would you kindly share the measured Content of IFN in induction mixture after 24-hour incubation for CCCCCCOC(=O)Nc1ccc(S(=O)(=O)Nc2ccccc2Cl)cc1 ?
2,3 ± 0,2 IU/3x10^4 lymph./ml

====

Test system: primary culture of human lymphocytes
PROTOCOL_DETAILS: Interferon-inducing activity in primary culture of human lymphocytes (IFN-α immunoenzyme test)
Assay type: cell-based
MEASUREMENT_CONTEXT: 1 mg/l
QUANTITY_MEASURED: Content of IFN in induction mixture after 24-hour incubation

For orientation, consider the following solved cases.
COMPOUND	ENDPOINT_RESULT
CCCCOC(=O)Nc1ccc(S(=O)(=O)Nc2cccc(Br)c2)cc1	1,3 ± 0,2 IU/3x10^4 lymph./ml
CCCCCCCOC(=O)Nc1ccc(S(=O)(=O)Nc2ccccc2Cl)cc1	1,2 ± 0,1 IU/3x10^4 lymph./ml
CCCCCOC(=O)Nc1ccc(S(=O)(=O)Nc2c(C)n(C)n(-c3ccccc3)c2=O)cc1	5 ± 0.4 IU/3x10^4 lymph./ml
CCOC(=O)Nc1ccc(S(=O)(=O)Nn2cnnc2)cc1	1,6 ± 0,1 IU/3x10^4 lymph./ml
CCCCOC(=O)Nc1ccc(S(=O)(=O)Nc2ccc(Br)cc2)cc1	1,4 ± 0,2 IU/3x10^4 lymph./ml

Would you kindly share the measured Content of IFN in induction mixture after 24-hour incubation for CCCCCCOC(=O)Nc1ccc(S(=O)(=O)Nc2ccccc2Cl)cc1 ?
1,4 ± 0,1 IU/3x10^4 lymph./ml

Would you kindly share the measured Content of IFN in induction mixture after 24-hour incubation for CCCCOC(=O)Nc1ccc(S(=O)(=O)Nc2c(Cl)cccc2Cl)cc1 ?
7 ± 1 IU/3x10^4 lymph./ml

Would you kindly share the measured Content of IFN in induction mixture after 24-hour incubation for CCCCCCOC(=O)Nc1ccc(S(=O)(=O)Nc2ccc(Br)cc2)cc1 ?
1,1 ± 0,1 IU/3x10^4 lymph./ml

Would you kindly share the measured Content of IFN in induction mixture after 24-hour incubation for CCCCOC(=O)Nc1ccc(S(=O)(=O)Nc2cc(C)ccc2C)cc1 ?
1,2 ± 0,1 IU/3x10^4 lymph./ml

Would you kindly share the measured Content of IFN in induction mixture after 24-hour incubation for CCCCOC(=O)Nc1ccc(S(=O)(=O)Nc2ccccc2Cl)cc1 ?
1,5 ± 0,1 IU/3x10^4 lymph./ml

Would you kindly share the measured Content of IFN in induction mixture after 24-hour incubation for CCCCOC(=O)Nc1ccc(S(=O)(=O)Nc2ccccc2)cc1 [XIII, Carbobutoxysulfanylic acid phenylamide] ?
1,5 ± 0,2 IU/3x10^4 lymph./ml

====

Tested on: primary culture of human lymphocytes
PROTOCOL_DETAILS: Interferon-inducing activity in primary culture of human lymphocytes (IFN-α immunoenzyme test)
Assay type: cell-based
MEASUREMENT_CONTEXT: 100 mg/l
QUANTITY_MEASURED: Content of IFN in induction mixture after 24-hour incubation

COMPOUND	ENDPOINT_RESULT
CCOC(=O)Nc1ccc(S(=O)(=O)Nn2cnnc2)cc1 [XXVI]	2,5 ± 0,5 IU/3x10^4 lymph./ml
CCCCCCOC(=O)Nc1ccc(S(=O)(=O)Nc2ccccc2Cl)cc1 [XXVIII]	3 ± 0,1 IU/3x10^4 lymph./ml
CCCCCCOC(=O)Nc1ccc(S(=O)(=O)Nc2ccc(Br)cc2)cc1 [V]	2 ± 0,3 IU/3x10^4 lymph./ml

Would you kindly share the measured Content of IFN in induction mixture after 24-hour incubation for CCCCOC(=O)Nc1ccc(S(=O)(=O)Nc2ccccc2)cc1 [XIII, Carbobutoxysulfanylic acid phenylamide] ?
2 ± 0,1 IU/3x10^4 lymph./ml

====

Test system: primary culture of human lymphocytes
PROTOCOL_DETAILS: Interferon-inducing activity in primary culture of human lymphocytes (IFN-α immunoenzyme test)
Format: cell-based
MEASUREMENT_CONTEXT: 100 mg/l
Each entry below lists one item and its recorded Content of IFN in induction mixture after 24-hour incubation value.

GIVEN_SMILES	ENDPOINT_RESULT
CCCCOC(=O)Nc1ccc(S(=O)(=O)Nc2c(Cl)cccc2Cl)cc1	100 ± 3 IU/3x10^4 lymph./ml

Would you kindly share the measured Content of IFN in induction mixture after 24-hour incubation for CCCCCOC(=O)Nc1ccc(S(=O)(=O)Nc2c(C)n(C)n(-c3ccccc3)c2=O)cc1 ?
69 ± 1 IU/3x10^4 lymph./ml

Would you kindly share the measured Content of IFN in induction mixture after 24-hour incubation for CCCCOC(=O)Nc1ccc(S(=O)(=O)Nc2ccccc2Cl)cc1 ?
2,5 ± 0,5 IU/3x10^4 lymph./ml

Would you kindly share the measured Content of IFN in induction mixture after 24-hour incubation for CCCCOC(=O)Nc1ccc(S(=O)(=O)Nc2ccc(Br)cc2)cc1 ?
3,5 ± 0,2 IU/3x10^4 lymph./ml

Would you kindly share the measured Content of IFN in induction mixture after 24-hour incubation for CCCCCCCOC(=O)Nc1ccc(S(=O)(=O)Nc2ccccc2Cl)cc1 ?
2 ± 0,3 IU/3x10^4 lymph./ml

Would you kindly share the measured Content of IFN in induction mixture after 24-hour incubation for CCCCOC(=O)Nc1ccc(S(=O)(=O)Nc2cccc(Br)c2)cc1 ?
2,5 ± 0,6 IU/3x10^4 lymph./ml

Would you kindly share the measured Content of IFN in induction mixture after 24-hour incubation for CCCCOC(=O)Nc1ccc(S(=O)(=O)Nc2cc(C)ccc2C)cc1 ?
2 ± 0,2 IU/3x10^4 lymph./ml
